A collection of compounds and their measured pKi
Target: GABA-A receptor; alpha-1/beta-3/gamma-2 (Homo sapiens, UniProt P14867+P18507+P28472)
Sequence (P14867 whole entry): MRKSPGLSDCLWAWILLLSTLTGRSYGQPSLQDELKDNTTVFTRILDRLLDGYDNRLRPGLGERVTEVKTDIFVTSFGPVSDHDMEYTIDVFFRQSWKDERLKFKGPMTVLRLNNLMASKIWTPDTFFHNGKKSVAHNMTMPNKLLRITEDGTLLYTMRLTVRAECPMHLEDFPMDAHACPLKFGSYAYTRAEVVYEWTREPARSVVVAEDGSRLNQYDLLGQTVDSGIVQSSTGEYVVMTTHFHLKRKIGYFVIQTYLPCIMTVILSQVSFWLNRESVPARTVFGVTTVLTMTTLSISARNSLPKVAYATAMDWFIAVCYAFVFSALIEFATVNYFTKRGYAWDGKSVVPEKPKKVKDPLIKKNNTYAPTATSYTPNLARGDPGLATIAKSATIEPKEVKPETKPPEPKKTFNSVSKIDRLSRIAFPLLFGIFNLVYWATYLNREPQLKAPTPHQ
Sequence (P18507 whole entry): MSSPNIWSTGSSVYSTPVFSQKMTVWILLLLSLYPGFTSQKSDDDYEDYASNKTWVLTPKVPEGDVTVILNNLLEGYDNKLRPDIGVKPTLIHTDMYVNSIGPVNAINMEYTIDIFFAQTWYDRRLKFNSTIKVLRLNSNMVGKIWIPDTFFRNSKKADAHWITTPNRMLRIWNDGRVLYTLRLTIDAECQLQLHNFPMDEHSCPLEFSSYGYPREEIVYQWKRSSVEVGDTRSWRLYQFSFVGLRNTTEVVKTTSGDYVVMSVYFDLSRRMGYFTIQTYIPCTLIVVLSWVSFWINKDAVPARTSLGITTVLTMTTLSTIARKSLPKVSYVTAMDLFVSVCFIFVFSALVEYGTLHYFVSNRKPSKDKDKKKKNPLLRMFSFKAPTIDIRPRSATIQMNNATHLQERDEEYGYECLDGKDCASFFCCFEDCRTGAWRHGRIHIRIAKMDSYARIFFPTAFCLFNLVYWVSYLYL
Sequence (P28472 whole entry): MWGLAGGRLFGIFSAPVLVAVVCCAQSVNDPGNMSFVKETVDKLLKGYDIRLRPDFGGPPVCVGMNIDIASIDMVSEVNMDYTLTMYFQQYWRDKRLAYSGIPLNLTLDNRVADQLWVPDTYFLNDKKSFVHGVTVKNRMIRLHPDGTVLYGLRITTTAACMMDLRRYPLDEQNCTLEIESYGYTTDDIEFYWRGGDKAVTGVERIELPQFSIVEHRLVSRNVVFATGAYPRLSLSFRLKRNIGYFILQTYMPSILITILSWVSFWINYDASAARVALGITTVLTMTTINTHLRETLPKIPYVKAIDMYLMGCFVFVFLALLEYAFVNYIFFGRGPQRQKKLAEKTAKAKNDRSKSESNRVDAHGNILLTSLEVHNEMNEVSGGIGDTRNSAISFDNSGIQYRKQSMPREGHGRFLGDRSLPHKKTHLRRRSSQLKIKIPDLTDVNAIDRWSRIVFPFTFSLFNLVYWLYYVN
Experiment: Binding affinity for human GABA-A receptor alpha-1-beta-3-gamma-2 subunits in L(tk-) cells
pKi (log units): -log10 of the concentration in mol/L.

- compound: "Cn1ccnc1COc1nn2c(-c3ccccc3)nnc2c2ccccc12"
  pKi: 9.29
- compound: "c1ccc(CCCOc2nn3c(-c4ccccc4)nnc3c3ccccc23)cc1"
  pKi: 6.52
- compound: "CCc1nnc2c3ccccc3c(OCc3ccccn3)nn12"
  pKi: 6.60
- compound: "c1ccc(-c2nnc3c4ccccc4c(OCc4ccco4)nn23)cc1"
  pKi: 6.60
- compound: "COc1nn2c(-c3ccccc3)nnc2c2ccccc12"
  pKi: 6.85

Would you mind telling me what pKi value was observed for Cc1cccnc1COc1nn2c(-c3ccccc3)nnc2c2ccccc12 ? 8.62

Give its pKi value. Item: COc1cccc(COc2nn3c(-c4ccccc4)nnc3c3ccccc23)c1 6.10

Recorded pKi for Fc1ccc(-c2nnc3c4ccccc4c(OCc4ccccn4)nn23)cc1 , please? 8.41

Item c1ccc(-c2nnc3c4ccccc4c(OCc4cccnc4)nn23)cc1 has what recorded pKi? 7.72

Bench note: what pKi did CC(Oc1nn2c(-c3ccccc3)nnc2c2ccccc12)c1ccccn1 (stereo unspecified) show? 6.02

Report pKi for c1ccc(-c2nnc3c4ccccc4c(OCc4ccccn4)nn23)cc1 please. 8.57

pKi for Cc1cccc2c1c(OCc1ccccn1)nn1c(-c3ccccc3)nnc21 ? 7.25

Consider the compound N#Cc1cccc(COc2nn3c(-c4ccccc4)nnc3c3ccccc23)c1 and give its measured pKi. 6.14

Query: pKi; subject: c1ccc(-c2nnc3c4ccccc4c(OCC4CCNCC4)nn23)cc1 7.49

Query: pKi; subject: c1ccc(COc2nn3c(C4CC4)nnc3c3ccccc23)nc1 7.80

Please give the measured pKi for this compound: c1ccc(CCOc2nn3c(-c4ccccc4)nnc3c3ccccc23)cc1 6.42

Which pKi is listed for CCCc1nnc2c3ccccc3c(OCc3ccccn3)nn12 ? 6.80

Fill blank: measured pKi of the compound Cc1ccc(COc2nn3c(-c4ccccc4)nnc3c3ccccc23)nc1 is ____. 8.32
